Collected koff values appear next to each entry.
- MEASURED TARGET: T1, Taq DNA polymerase (Thermus aquaticus, UniProt P19821 1-832)
- T1 construct: also called Taq enzyme; Taq DNA enzyme
- T1 sequence (P19821 whole entry): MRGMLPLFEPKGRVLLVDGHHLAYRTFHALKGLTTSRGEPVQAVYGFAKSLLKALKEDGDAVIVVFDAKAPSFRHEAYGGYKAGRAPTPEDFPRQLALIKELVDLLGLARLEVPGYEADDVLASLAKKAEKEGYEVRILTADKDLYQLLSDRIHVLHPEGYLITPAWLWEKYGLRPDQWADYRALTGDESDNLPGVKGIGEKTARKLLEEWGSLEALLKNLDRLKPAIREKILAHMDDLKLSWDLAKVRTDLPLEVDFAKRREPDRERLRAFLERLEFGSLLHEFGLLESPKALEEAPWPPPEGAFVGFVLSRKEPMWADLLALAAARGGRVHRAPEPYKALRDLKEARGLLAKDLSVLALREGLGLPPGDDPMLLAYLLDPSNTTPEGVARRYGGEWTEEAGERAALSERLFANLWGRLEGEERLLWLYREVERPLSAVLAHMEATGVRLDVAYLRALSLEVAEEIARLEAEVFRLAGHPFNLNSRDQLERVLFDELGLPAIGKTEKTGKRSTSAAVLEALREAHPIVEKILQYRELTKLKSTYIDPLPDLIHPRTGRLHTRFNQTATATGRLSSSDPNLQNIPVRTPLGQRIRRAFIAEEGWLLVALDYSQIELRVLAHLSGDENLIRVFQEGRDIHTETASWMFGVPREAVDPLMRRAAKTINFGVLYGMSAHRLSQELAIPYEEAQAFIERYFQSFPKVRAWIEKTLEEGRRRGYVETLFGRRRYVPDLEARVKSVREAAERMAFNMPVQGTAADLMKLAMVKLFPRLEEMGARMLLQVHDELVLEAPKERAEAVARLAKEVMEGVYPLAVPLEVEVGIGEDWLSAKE
- ASSAY: AMC sensor, antibody immobilised
Enter your answer as a number in s⁻¹; do not include the unit.

Lab note: Mutation 1-18 (antibody, V domains shown, Mutation 1 background; CDRs built) VH: QVQLQQPGAELVKPGASVRLSCQTSVDTFTTYYIYWVKQRPGEGLEWIGGVNPTSNPVFNEKFKSKATLTVDTSSSTAYMQLSSLTSVDSAVYYCTRSILRRGYYFDYWGQGTALTVSS VL: DIQMTQTTSSLSASLGDRVTISCRASQDIQNYVNWYQQKPDGTIKLLIYYTSRLQSGIPSRFSGSGSGTDYSLTIANLEQEDIATYFCQQDDTIPVTFGAGTKVELKR gave koff of 4.5e-05
